Reference source for all entries: PubChem BioAssay (NCI)

Measured TGI, listed per entry for reference.
Tested on: MDA-MB-468 breast
run description: NCI tumour cell line growth inhibition, 48 h
# unit: µM | format: bare number

1. O=C1NC(=S)S/C1=C\c1cn(-c2ccccc2)nc1-c1ccccc1	39.9
2. C=C1C(=O)O[C@H]2[C@H]1CC/C(COC(=O)c1cc(OC)c(OC)c(OC)c1)=C\CC[C@@]1(C)O[C@@H]21	2.02
3. O=C(Nc1ccc(Oc2ccc(F)cc2)cc1)[C@@H]1C[C@@H](Cc2ccc(F)cc2)CN1C(=O)Cn1ccnn1	29

// moving on: another record for TGI
Input: For the compound shown here, CCCCN(CCCC)C(=O)[C@H](CC)[C@@H]1CC[C@@H](C)[C@@H]([C@H](C)[C@@H](O)[C@@H](C)C(=O)[C@H](CC)C2O[C@]3(C=C[C@@H](O)[C@]4(CC[C@@](C)([C@H]5CC[C@](O)(CC)[C@H](C)O5)O4)O3)[C@H](C)C[C@@H]2C)O1 (stereo partly specified) , give the reported TGI.
Output: 3.89
